Parameter 'readout' = IC50; parameter 'system' = UniProt P42336.
Sequence (P42336 whole entry): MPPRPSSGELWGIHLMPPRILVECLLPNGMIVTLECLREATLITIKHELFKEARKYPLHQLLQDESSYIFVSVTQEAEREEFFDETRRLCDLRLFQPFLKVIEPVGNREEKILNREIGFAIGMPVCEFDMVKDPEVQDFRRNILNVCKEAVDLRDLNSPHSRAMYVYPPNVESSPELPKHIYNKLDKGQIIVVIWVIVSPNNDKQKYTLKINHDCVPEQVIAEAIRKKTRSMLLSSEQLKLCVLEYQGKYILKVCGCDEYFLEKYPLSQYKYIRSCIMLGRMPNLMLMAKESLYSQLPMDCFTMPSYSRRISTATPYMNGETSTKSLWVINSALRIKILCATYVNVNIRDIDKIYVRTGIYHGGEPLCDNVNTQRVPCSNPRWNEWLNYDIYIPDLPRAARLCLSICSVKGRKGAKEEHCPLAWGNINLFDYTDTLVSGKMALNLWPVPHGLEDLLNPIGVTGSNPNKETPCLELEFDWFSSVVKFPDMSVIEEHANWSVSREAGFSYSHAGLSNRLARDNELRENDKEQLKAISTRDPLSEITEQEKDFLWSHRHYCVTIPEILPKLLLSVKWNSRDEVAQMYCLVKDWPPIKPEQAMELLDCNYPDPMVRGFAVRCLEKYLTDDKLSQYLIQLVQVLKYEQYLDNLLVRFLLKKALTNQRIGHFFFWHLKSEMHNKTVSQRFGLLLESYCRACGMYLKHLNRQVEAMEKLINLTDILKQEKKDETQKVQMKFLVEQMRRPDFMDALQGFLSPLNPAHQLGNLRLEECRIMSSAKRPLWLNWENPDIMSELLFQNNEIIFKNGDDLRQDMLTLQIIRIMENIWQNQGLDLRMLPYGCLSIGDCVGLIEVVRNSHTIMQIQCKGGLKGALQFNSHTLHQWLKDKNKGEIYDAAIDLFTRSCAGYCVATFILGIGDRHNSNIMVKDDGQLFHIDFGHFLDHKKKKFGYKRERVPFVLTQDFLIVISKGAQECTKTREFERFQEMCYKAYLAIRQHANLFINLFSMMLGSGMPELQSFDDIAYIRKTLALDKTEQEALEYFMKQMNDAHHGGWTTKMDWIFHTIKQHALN
Sequence (P27986 whole entry, further chain): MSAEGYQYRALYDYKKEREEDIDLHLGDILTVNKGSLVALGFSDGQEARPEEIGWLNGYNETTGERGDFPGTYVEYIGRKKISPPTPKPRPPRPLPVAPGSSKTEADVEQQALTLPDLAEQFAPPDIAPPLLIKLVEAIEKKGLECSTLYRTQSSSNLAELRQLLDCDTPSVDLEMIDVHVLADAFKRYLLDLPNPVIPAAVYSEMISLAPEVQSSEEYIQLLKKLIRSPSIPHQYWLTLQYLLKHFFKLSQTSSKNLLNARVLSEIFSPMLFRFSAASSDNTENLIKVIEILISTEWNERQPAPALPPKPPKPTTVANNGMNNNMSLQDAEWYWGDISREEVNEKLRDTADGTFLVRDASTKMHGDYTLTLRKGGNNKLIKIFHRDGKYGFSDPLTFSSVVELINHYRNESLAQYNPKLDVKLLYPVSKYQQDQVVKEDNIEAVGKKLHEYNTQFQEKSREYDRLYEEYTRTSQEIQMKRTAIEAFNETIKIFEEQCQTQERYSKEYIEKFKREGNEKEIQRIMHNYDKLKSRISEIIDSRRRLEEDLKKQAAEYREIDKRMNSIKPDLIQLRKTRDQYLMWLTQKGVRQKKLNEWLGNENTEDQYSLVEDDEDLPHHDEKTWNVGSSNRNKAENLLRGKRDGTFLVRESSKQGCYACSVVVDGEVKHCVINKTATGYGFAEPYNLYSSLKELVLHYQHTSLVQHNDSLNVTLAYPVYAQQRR

structureNotation | IC50 (nM)
O=C(c1nn(-c2ccc(CN3CCOCC3)cc2)c2c1CS(=O)(=O)c1c-2ccc(Cl)c1F)N1CCOC2(CC2)C1 | 441
Cc1cccc2c1S(=O)(=O)Cc1c(C(=O)N3CCOC4(CC4)C3)nn(-c3ccc(CN4CCOCC4)cc3)c1-2 | 2570
O=C(c1nn(-c2ccc(CN3CCOCC3)cc2)c2c1CS(=O)(=O)c1c(F)cccc1-2)N1CCOC2(CC2)C1 | 468
Cc1ccc2c(c1)S(=O)(=O)Cc1c(C(=O)N3CCOC4(CC4)C3)nn(-c3ccc(CN4CCOCC4)cc3)c1-2 | 1760
COc1cccc2c1S(=O)(=O)Cc1c(C(=O)N3CCOC4(CC4)C3)nn(-c3ccc(CN4CCOCC4)cc3)c1-2 | 2330
O=C(c1nn(-c2ccc(CN3CCOCC3)cc2)c2c1CS(=O)(=O)c1cc(Cl)ccc1-2)N1CCOC2(CC2)C1 | 1520

----------
# measuredTarget: UniProtKB P42338
The label is Yes for IC50 below 2000 nM and No for IC50 equal to or exceeding 2000 nM.

molecule | className
Cc1ccc2c(c1)S(=O)(=O)Cc1c(C(=O)N3CCOC4(CC4)C3)nn(-c3ccc(CN4CCOCC4)cc3)c1-2 [Example 9] | Yes
COc1cccc2c1S(=O)(=O)Cc1c(C(=O)N3CCOC4(CC4)C3)nn(-c3ccc(CN4CCOCC4)cc3)c1-2 [Example 5] | No
O=C(c1nn(-c2ccc(CN3CCOCC3)cc2)c2c1CS(=O)(=O)c1c(F)cccc1-2)N1CCOC2(CC2)C1 [Example 1] | Yes
O=C(c1nn(-c2ccc(CN3CCOCC3)cc2)c2c1CS(=O)(=O)c1c-2ccc(Cl)c1F)N1CCOC2(CC2)C1 [Example 11] | Yes
Cc1cccc2c1S(=O)(=O)Cc1c(C(=O)N3CCOC4(CC4)C3)nn(-c3ccc(CN4CCOCC4)cc3)c1-2 [Example 6] | No
O=C(c1nn(-c2ccc(CN3CCOCC3)cc2)c2c1CS(=O)(=O)c1cc(Cl)ccc1-2)N1CCOC2(CC2)C1 [Example 7] | Yes

----------
# measuredTarget: PI3Kδ enzyme (Homo sapiens, UniProt O00329)
# Sequence (O00329 whole entry, one chain of several): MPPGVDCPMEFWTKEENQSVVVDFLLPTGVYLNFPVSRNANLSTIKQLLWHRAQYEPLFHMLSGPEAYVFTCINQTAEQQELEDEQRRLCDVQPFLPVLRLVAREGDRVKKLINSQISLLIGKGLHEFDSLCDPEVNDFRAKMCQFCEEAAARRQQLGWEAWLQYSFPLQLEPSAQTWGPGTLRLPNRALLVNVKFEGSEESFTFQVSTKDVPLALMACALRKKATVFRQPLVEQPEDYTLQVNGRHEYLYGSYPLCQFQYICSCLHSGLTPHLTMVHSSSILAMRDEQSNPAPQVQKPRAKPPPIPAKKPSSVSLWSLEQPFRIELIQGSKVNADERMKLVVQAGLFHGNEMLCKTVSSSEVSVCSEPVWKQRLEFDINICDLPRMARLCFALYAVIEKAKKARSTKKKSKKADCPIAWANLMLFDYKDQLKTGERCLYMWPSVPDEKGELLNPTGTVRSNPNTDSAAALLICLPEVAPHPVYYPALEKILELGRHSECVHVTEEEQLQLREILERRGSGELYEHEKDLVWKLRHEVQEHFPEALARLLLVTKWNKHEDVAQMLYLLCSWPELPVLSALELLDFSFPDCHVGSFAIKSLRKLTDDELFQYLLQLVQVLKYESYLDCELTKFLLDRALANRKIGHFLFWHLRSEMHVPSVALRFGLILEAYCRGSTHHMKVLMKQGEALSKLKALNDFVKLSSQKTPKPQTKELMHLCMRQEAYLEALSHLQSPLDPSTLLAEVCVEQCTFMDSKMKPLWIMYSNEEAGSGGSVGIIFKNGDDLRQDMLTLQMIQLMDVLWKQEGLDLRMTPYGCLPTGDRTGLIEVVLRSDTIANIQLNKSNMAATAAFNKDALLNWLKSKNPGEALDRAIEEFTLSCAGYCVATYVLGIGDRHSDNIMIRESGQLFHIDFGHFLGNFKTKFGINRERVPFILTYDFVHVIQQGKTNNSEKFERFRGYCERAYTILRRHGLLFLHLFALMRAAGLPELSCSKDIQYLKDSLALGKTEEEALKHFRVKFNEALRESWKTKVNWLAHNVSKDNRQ
# runDescription: ADP-Glo kinase assay, inhibition of PI3Kδ enzyme
# Type: biochemical
# conditionLabel: ADP-Glo, PIK3CD/PIK3R1, 11 concentrations from 10000 nM; read-out: PI3Kδ enzyme IC50

structureNotation | measuredTarget | IC50 [nM]
Cc1cccc2c1-c1c(c(C(=O)N3CCOC4(CC4)C3)nn1-c1ccc(CN3CCOCC3)cc1)CS2(=O)=O | PI3Kδ enzyme (Homo sapiens, UniProt O00329) | 5.8
O=C(c1nn(-c2ccc(CN3CCOCC3)cc2)c2c1CS(=O)(=O)c1c(Cl)cccc1-2)N1CCOC2(CC2)C1 | PI3Kδ enzyme (Homo sapiens, UniProt O00329) | 18.4
COc1cccc2c1-c1c(c(C(=O)N3CCOC4(CC4)C3)nn1-c1ccc(CN3CCOCC3)cc1)CS2(=O)=O | PI3Kδ enzyme (Homo sapiens, UniProt O00329) | 5.6
COc1ccc2c(c1)S(=O)(=O)Cc1c(C(=O)N3CCOC4(CC4)C3)nn(-c3ccc(CN4CCOCC4)cc3)c1-2 | PI3Kδ enzyme (Homo sapiens, UniProt O00329) | 7.9
